- Target entity: full-length BTK C481S enzyme (Homo sapiens (Human), UniProt Q06187, C481S)
- Sequence (Q06187 whole entry C481S): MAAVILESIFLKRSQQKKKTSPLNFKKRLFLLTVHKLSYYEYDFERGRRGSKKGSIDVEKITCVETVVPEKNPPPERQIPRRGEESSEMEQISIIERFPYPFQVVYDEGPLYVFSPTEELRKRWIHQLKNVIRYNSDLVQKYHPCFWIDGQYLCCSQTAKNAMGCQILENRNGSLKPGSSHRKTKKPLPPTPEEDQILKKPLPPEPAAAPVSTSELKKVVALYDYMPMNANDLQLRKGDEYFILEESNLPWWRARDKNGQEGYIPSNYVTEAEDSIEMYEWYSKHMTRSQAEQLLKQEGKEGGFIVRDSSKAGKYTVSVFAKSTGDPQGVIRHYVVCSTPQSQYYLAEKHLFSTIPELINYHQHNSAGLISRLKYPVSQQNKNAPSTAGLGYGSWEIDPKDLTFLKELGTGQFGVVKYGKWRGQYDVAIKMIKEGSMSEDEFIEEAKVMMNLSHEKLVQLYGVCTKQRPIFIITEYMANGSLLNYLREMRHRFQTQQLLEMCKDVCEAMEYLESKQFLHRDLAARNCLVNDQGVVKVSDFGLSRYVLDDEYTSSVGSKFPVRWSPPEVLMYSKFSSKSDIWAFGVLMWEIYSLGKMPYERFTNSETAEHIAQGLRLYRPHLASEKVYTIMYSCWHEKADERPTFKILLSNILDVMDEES
- Measurement description: Biochemical kinase assay BTK C481S (IMAP)
Measured metric: IC50

1. C[C@H]1CC(=O)N[C@@H]2CCC[C@H](C2)n2nc(-c3ccc(C(=O)Nc4cc(C(F)(F)F)ccn4)cc3)c3c(N)ncc(c32)/C=C/CN1C	< 5 nM
2. Nc1ncc2n3c(nc(-c4ccc(C(=O)Nc5cc(C(F)(F)F)ccn5)cc4)c13)[C@@H]1CCC[C@H](C1)NC(=O)CCOC/C=C/2	< 5 nM
3. Nc1ncc2c3c1c(-c1ccc(C(=O)Nc4ccccn4)cc1)nn3[C@@H]1CCC[C@H](C1)NC(=O)CCC/C=C\C2 [Example 99b]	5 to 50 nM
4. Nc1ncc2n3c(nc(-c4ccc(C(=O)Nc5cc(C(F)(F)F)ccn5)cc4)c13)[C@@H]1CCC[C@H](C1)NC(=O)CCCCC/C=C/2	< 5 nM
5. Nc1ncc2c3c1c(-c1ccc(C(=O)Nc4cc(C(F)(F)F)ccn4)cc1)nn3[C@@H]1CCC[C@H](C1)NC(=O)[C@H]1CN(C/C=C/2)CCN1	< 5 nM
6. Nc1ncc2c3c1c(-c1ccc(C(=O)Nc4cc(C(F)(F)F)ccn4)cc1)nn3[C@@H]1CCC[C@H](C1)C(=O)NCCCCCC2	< 5 nM
7. Nc1ncc2c3c1c(-c1ccc(C(=O)Nc4cc(C(F)(F)F)ccn4)cc1)nn3[C@@H]1CCC[C@H](C1)C(=O)NCC/C=C\C2	50 to 500 nM
8. Nc1ncc2c3c1c(-c1ccc(C(=O)Nc4ccccn4)cc1)nn3[C@@H]1CCC[C@H](C1)C(=O)NCCCCC/C=C\C2 [Example 88b]	< 5 nM
9. N#Cc1ccnc(NC(=O)c2ccc(-c3nc4n5c(cnc(N)c35)/C=C/CCOCCC(=O)N[C@@H]3CCC[C@@H]4C3)cc2)c1	< 5 nM
10. Nc1ncc2c3c1c(-c1ccc(C(=O)Nc4cc(C(F)(F)F)ccn4)cc1)nn3[C@@H]1CCC[C@H](C1)NC(=O)CCNC/C=C/C2	5 to 50 nM
11. COc1ccc(F)cc1C(=O)NCc1ccc(-c2nc3n4c(cnc(N)c24)/C=C/CCOCCC(=O)N[C@@H]2CC[C@@H]3C2)cc1	< 5 nM
12. C[C@@H]1CCn2nc(-c3ccc(C(=O)Nc4cc(C(F)(F)F)ccn4)cc3)c3c(N)ncc(c32)/C=C/CCCCCCC(=O)N1	< 5 nM
13. C[C@@H]1CCn2nc(-c3ccc(C(=O)Nc4cc(C(F)(F)F)ccn4)cc3)c3c(N)ncc(c32)/C=C/CN2CC[C@H](C2)C(=O)N1	< 5 nM
14. Nc1ncc2c3c1c(-c1ccc(C(=O)Nc4cc(C(F)(F)F)ccn4)cc1)nn3[C@@H]1CCC[C@H](C1)NC(=O)CCCCCC/C=C/C2 [Example 103a]	< 5 nM
15. Nc1ncc2c3c1c(-c1ccc(C(=O)Nc4cc(C(F)(F)F)ccn4)cc1)nn3[C@@H]1CCC[C@H](C1)NC(=O)CCCNC/C=C/2	< 5 nM
16. Nc1ncc2c3c1c(-c1ccc(C(=O)Nc4cc(C(F)(F)F)ccn4)cc1)nn3[C@@H]1CCC[C@H](C1)NC(=O)CC/C=C/C2	5 to 50 nM
17. Nc1ncc2c3c1c(-c1ccc(C(=O)Nc4cc(C(F)(F)F)ccn4)cc1F)nn3[C@@H]1CCC[C@H](C1)NC(=O)CNC/C=C/2	< 5 nM
